Consider the following binders and their measured koff readings.
# Test Target: T1, RSV F glycoprotein (NUF4) (respiratory syncytial virus)
# T1 chain 1: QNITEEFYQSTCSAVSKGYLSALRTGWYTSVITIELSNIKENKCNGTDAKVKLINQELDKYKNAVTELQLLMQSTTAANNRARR
# T1 chain 2: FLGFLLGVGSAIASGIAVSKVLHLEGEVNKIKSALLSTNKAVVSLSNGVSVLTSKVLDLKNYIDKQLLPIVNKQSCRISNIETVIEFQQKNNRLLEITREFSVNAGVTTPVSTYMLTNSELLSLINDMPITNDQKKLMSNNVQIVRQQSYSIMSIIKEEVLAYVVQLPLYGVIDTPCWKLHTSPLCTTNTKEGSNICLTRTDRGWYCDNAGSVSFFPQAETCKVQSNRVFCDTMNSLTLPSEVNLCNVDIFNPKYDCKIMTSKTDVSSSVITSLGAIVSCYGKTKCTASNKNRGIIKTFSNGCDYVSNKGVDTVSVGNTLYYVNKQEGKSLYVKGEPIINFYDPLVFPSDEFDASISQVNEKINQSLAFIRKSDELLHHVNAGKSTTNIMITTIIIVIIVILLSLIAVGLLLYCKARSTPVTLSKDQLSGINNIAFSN
# Assay Overview: BIAcore, mAb vs NUF4 (1:1)
The reply should contain only the number, in s⁻¹.

Example entries begin here.
{"columns": ["Binder", "koff / s⁻¹"],
 "data": [
  ["P12f2 (monoclonal antibody) (antibody, V domains shown, mAb with framework and constant regions of SYNAGIS; also called Pf12) VH: QVTLRESGPALVKPTQTLTLTCTFSGFSLSTPGMSVGWIRQPPGKALEWLADIWWDDKKHYNPSLKDRLTISKDTSKNQVVLKVTNMDPADTATYYCARDMIFNFYFDVWGAGTTVTVSS VL: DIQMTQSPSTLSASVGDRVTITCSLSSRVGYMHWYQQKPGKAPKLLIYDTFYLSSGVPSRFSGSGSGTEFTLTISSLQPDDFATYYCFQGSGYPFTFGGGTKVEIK", 0.000178],
  ["P11d4 (monoclonal antibody) (antibody, V domains shown, mAb with framework and constant regions of SYNAGIS) VH: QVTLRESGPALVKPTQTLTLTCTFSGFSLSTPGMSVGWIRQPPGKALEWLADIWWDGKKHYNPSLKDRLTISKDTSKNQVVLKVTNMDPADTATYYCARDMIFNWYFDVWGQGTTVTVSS VL: DIQMTQSPSTLSASVGDRVTITCSPSSRVGYMHWYQQKPGKAPKLLIYDTMRLASGVPSRFSGSGSGTEFTLTISSLQPDDFATYYCFQGSGYPFTFGGGTKVEIK", 0.000766],
  ["A8c7 (monoclonal antibody) (antibody, V domains shown, mAb with framework and constant regions of SYNAGIS) VH: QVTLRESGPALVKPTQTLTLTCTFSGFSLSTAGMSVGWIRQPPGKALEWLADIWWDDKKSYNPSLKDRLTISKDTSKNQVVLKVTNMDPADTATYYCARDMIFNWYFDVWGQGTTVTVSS VL: DIQMTQSPSTLSASVGDRVTITCSASSRVGYMHWYQQKPGKAPKLLIYDTRYQSSGVPSRFSGSGSGTEFTLTISSLQPDDFATYYCFQGSGYPFTFGGGTKLEIK", 0.000535],
  ["A4B4 (monoclonal antibody) (antibody, V domains shown, mAb; also called A4B4/A4B4 (HC/LC)) VH: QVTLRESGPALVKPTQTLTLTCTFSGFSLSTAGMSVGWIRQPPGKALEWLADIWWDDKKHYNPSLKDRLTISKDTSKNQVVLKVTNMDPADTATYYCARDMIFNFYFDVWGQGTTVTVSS VL: DIQMTQSPSTLSASVGDRVTITCSASSRVGYMHWYQQKPGKAPKLLIYDTFFLDSGVPSRFSGSGSGTEFTLTISSLQPDDFATYYCFQGSGYPFTFGGGTKLEIK", 0.000282]
]}

Now look at this entry.
Prompt line: // Input: A12a6 (monoclonal antibody) (antibody, V domains shown, mAb with framework and constant regions of SYNAGIS) VH: QVTLRESGPALVKPTQTLTLTCTFSGFSLSTAGMSVGWIRQPPGKALEWLADIWWDGKKDYNPSLKDRLTISKDTSKNQVVLKVTNMDPADTATYYCARDMIFNFYFDVWGQGTTVTVSS VL: DIQMTQSPSTLSASVGDRVTITCSASSRVGYMHWYQQKPGKAPKLLIYDTFKLSSGVPSRFSGSGSGTEFTLTISSLQPDDFATYYCFQGSGYPFTFGGGTKVEIK . Output its koff only.
Response line: 0.000291
